- Tested on: Echinochloa oryzicola
- METHOD_NOTES: Pre-emergence herbicidal activity against Echinochloa oryzicola at 2000 g a.i/ha measured after 14 days
- Type: functional, organism-based
Activity calls are given as the source filed them. The rule behind the calls is not given here.
Please answer using one outcome listed in yes (active), no (inactive)

Data request: I'd appreciate the recorded outcome for `CCCN(CC)C(=O)c1cn(C)nc1OCc1ccccc1` from this test.
Data returned: yes

Data request: I'd appreciate the recorded outcome for `CCCN(CC)C(=O)c1cn(C)nc1OCc1cccc(Cl)c1` from this test.
Data returned: yes

Data request: I'd appreciate the recorded outcome for `CCCN(CC)C(=O)c1cn(C)nc1OCc1cc(F)cc(F)c1` from this test.
Data returned: yes

Data request: I'd appreciate the recorded outcome for `CCCN(CC)C(=O)c1cn(C)nc1OCc1cc(C(F)(F)F)cc(C(F)(F)F)c1` from this test.
Data returned: no

Data request: I'd appreciate the recorded outcome for `CCCN(CC)C(=O)c1cn(C)nc1OCc1cc(Br)cc(Br)c1` from this test.
Data returned: no

Data request: I'd appreciate the recorded outcome for `CCCN(CC)C(=O)c1cn(C)nc1OCc1ccccc1C(F)(F)F` from this test.
Data returned: no

Data request: I'd appreciate the recorded outcome for `CCCN(CC)C(=O)c1cn(C)nc1OCc1ccc(C)cc1` from this test.
Data returned: no

Data request: I'd appreciate the recorded outcome for `CCCN(CC)C(=O)c1cn(C)nc1OCc1cccc(C)c1` from this test.
Data returned: no

Data request: I'd appreciate the recorded outcome for CCCN(CC)C(=O)c1cn(C)nc1OC(C)c1cccc(Br)c1 (configuration not stated) from this test.
Data returned: no

Data request: I'd appreciate the recorded outcome for `CCCN(CC)C(=O)c1cn(C)nc1OCc1ccc(C(F)(F)F)cc1` from this test.
Data returned: no

Data request: I'd appreciate the recorded outcome for `CCCN(CC)C(=O)c1cn(C)nc1OC` from this test.
Data returned: no

Data request: I'd appreciate the recorded outcome for `CCCN(CC)C(=O)c1cn(C)nc1OCc1cccc(C#N)c1` from this test.
Data returned: no

Data request: I'd appreciate the recorded outcome for `C#CCOc1nn(C)cc1C(=O)N(CC)CCC` from this test.
Data returned: no

Data request: I'd appreciate the recorded outcome for `CCCN(CC)C(=O)c1cn(C)nc1OCc1ccc(SC)cc1` from this test.
Data returned: no

Data request: I'd appreciate the recorded outcome for `CCCN(CC)C(=O)c1cn(C)nc1OCc1cccc(Br)c1` from this test.
Data returned: yes

Data request: I'd appreciate the recorded outcome for `CCCN(CC)C(=O)c1cn(C)nc1OCc1cccc(C(F)(F)F)c1` from this test.
Data returned: yes

Data request: I'd appreciate the recorded outcome for `CCCN(CC)C(=O)c1cn(C)nc1OCc1cccc(F)c1` from this test.
Data returned: yes

Ref: ChEMBL document CHEMBL3046635
